Hi there, I'd appreciate the recorded PBM E-score of 8-mer for every entry that follows.
Tested on: PmTbr T-box DNA-binding domain (GST fusion);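 further: 200 nM protein in PBS on universal arrays averaged over duplicate arrays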
Sequence: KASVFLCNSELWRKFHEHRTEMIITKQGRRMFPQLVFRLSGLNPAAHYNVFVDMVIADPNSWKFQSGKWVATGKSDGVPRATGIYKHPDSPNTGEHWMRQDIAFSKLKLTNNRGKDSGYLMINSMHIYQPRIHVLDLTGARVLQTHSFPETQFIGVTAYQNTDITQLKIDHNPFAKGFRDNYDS
Assay procedure: PBM E-score of 8-mer (E-score (dimensionless, -0.5 to 0.5)); higher = stronger binding preference
Assay context: the construct has about 5 more residues each side
Whole data set: some 33,000 sequences, median “E-score (dimensionless, -0.5 to 0.5)” near -0.049, cut for the highest 2% near 0.37. Only a selection was taken, and the highest values are over-represented in it overall.
Just the number, please, no unit after it.

// PBM E-score of 8-mer lookup, sequence = CTACCAGA , result: -0.138

// PBM E-score of 8-mer lookup, sequence = GGCACCGA , result: -0.0859

// PBM E-score of 8-mer lookup, sequence = CTTCGCGA , result: 0.277

// PBM E-score of 8-mer lookup, sequence = TATGATAA , result: -0.0124

// PBM E-score of 8-mer lookup, sequence = AGCACCTC , result: 0.428

// PBM E-score of 8-mer lookup, sequence = ACCAGGTC , result: -0.101

// PBM E-score of 8-mer lookup, sequence = ACCAGGTA , result: -0.0585

// PBM E-score of 8-mer lookup, sequence = CTTAAGAC , result: -0.218

// PBM E-score of 8-mer lookup, sequence = CGGCGAAA , result: -0.14

// PBM E-score of 8-mer lookup, sequence = CACCTGCA , result: 0.4

// PBM E-score of 8-mer lookup, sequence = CACCTGCC , result: 0.406

// PBM E-score of 8-mer lookup, sequence = ACCAGGTG , result: 0.369

// PBM E-score of 8-mer lookup, sequence = AACCTGGC , result: 0.195

// PBM E-score of 8-mer lookup, sequence = GACAGGAA , result: 0.0889

// PBM E-score of 8-mer lookup, sequence = GGGGCTGA , result: -0.179

// PBM E-score of 8-mer lookup, sequence = ACATTAGG , result: 0.0856

// PBM E-score of 8-mer lookup, sequence = CCTAATAG , result: -0.122

// PBM E-score of 8-mer lookup, sequence = CCCACCTC , result: 0.291

// PBM E-score of 8-mer lookup, sequence = AAGGTGTG , result: 0.481

// PBM E-score of 8-mer lookup, sequence = AGAATCTA , result: 0.151

// PBM E-score of 8-mer lookup, sequence = ATTCGCGA , result: 0.389

* * *

System: PmTbr T-box DNA-binding domain (GST fusion);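 further: 200 nM protein in PBS on universal arrays averaged over duplicate arrays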
Sequence: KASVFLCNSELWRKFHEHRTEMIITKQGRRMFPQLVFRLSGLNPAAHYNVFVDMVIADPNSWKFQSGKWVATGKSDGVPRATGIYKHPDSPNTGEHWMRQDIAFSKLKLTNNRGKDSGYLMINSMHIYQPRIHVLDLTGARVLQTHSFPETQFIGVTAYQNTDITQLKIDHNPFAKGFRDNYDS
Assay procedure: PBM E-score of 8-mer (E-score (dimensionless, -0.5 to 0.5)); Tbr is Tbrain of the sea star Patiria miniata (Pm) or the sea urchin Strongylocentrotus purpuratus (Sp); higher = stronger binding preference
Assay context: target sequence: T-box / the construct has about 5 more residues each side
Over roughly 33,000 sequences, “E-score (dimensionless, -0.5 to 0.5)” has its median near -0.049; the highest 2% begin near 0.37. The entries come from a sample that favours the highest values as a whole.
Test readout: PBM E-score of 8-mer
Just the number, please, no unit after it.

// PBM E-score of 8-mer lookup, sequence = AAGGAGGC , result: -0.181

// PBM E-score of 8-mer lookup, sequence = CACCCAAG , result: 0.263

// PBM E-score of 8-mer lookup, sequence = ATGAGGTC , result: -0.00428

// PBM E-score of 8-mer lookup, sequence = AGACAGGC , result: -0.103

// PBM E-score of 8-mer lookup, sequence = TAGTGTAA , result: 0.185

// PBM E-score of 8-mer lookup, sequence = AGCTGTGA , result: 0.404

// PBM E-score of 8-mer lookup, sequence = CGTTCACA , result: 0.406

// PBM E-score of 8-mer lookup, sequence = CAAGTGGC , result: 0.268

// PBM E-score of 8-mer lookup, sequence = CCTGACAA , result: 0.207

// PBM E-score of 8-mer lookup, sequence = AGGAGGTA , result: -0.0739

// PBM E-score of 8-mer lookup, sequence = AAAAGTGG , result: 0.107

// PBM E-score of 8-mer lookup, sequence = ATGTCCAG , result: -0.0643

// PBM E-score of 8-mer lookup, sequence = CCAGAGCC , result: -0.17

// PBM E-score of 8-mer lookup, sequence = AGGGGGTG , result: 0.316

// PBM E-score of 8-mer lookup, sequence = GGTGGGCA , result: 0.0512

// PBM E-score of 8-mer lookup, sequence = ACCCTCAA , result: 0.0906

// PBM E-score of 8-mer lookup, sequence = AGTCGCAA , result: 0.147

// PBM E-score of 8-mer lookup, sequence = AGTGTTTC , result: 0.134

// PBM E-score of 8-mer lookup, sequence = CGGGTGCC , result: 0.247

// PBM E-score of 8-mer lookup, sequence = AAGAGGTG , result: 0.426

// PBM E-score of 8-mer lookup, sequence = AAAAGTGA , result: 0.197

// PBM E-score of 8-mer lookup, sequence = ACCTCAAC , result: -0.0545

// PBM E-score of 8-mer lookup, sequence = GGTGGCAA , result: 0.388

// PBM E-score of 8-mer lookup, sequence = ACAAGTGT , result: 0.391

// PBM E-score of 8-mer lookup, sequence = GAGCTTCA , result: -0.137

// PBM E-score of 8-mer lookup, sequence = AAAAGCTT , result: -0.0359

// PBM E-score of 8-mer lookup, sequence = CACTTCGG , result: 0.363

// PBM E-score of 8-mer lookup, sequence = GTCCCCAA , result: -0.071

// PBM E-score of 8-mer lookup, sequence = CAGGTGCA , result: 0.277

// PBM E-score of 8-mer lookup, sequence = CAAGTGTA , result: 0.178

// PBM E-score of 8-mer lookup, sequence = AGAGTTGA , result: 0.0684
